- Test system: CCRF-CEM
- assay.text: NCI tumour cell line growth inhibition, 48 h
Active and inactive are the calls of the source. Rule as the data show it: active = GI50 up to about 1.1 µM and inactive = higher.
Tick one outcome: active, inactive

# example entries with known answers
1. COC(=O)c1cc(/C=C\c2cc(OC)ccc2OC)ccc1OC	inactive
2. O=C(CC(=O)CC(O)(C(F)(F)F)C(F)(F)F)CC(O)(C(F)(F)F)C(F)(F)F	inactive
3. COc1cc(/C=C/C(=N\NS(=O)(=O)c2ccc(C)cc2)c2sc(NNC(C)=O)nc2C)ccc1O	inactive
4. CCCCCNC(=O)CCCCCCCCCCCNC(=O)CCCCCCCCCCN1C=CC(=CC=C2C=CC(=O)C=C2)C=C1	inactive

# lookup: test call for Oc1ccc(/C=C\c2nnc(/C=C\c3ccc(O)c(O)c3)s2)cc1O
active

# lookup: test call for Cc1cc(S(=O)(=O)Nc2nc(N)n[nH]2)c(SCC(=O)O)cc1Cl
inactive

* * *

- Test system: A549
- assay.text: NCI tumour cell line growth inhibition, 48 h
The source made the active and inactive calls. Rule as the data show it: active = GI50 up to about 1.1 µM and inactive = higher.
Tick one outcome: active, inactive

# example entries with known answers
1. O=C1C=C2SC3C[C@@]24CC1(O)[N+]1=c2c4c(c(O)c4c2=C(C=N4)CC1)N3	inactive
2. O=C(CSCC(=O)N/N=C\c1cccc(Br)c1)N/N=C\c1cccc(Br)c1	inactive
3. C/C(=C\COP(=O)(O)OP(=O)(O)O)CC/C=C(\C)CNc1c(F)c(F)c(F)c(F)c1F	inactive
4. COc1cc([N+](=O)[O-])c(S(=O)(=O)O)cc1-n1nc(C(=O)Nc2ccccc2)n[n+]1-c1cc(S(=O)(=O)[O-])c([N+](=O)[O-])cc1OC	inactive
5. c1cc2ccc3cc4ncccc4c4ccc(c1)c2c34	inactive
6. COc1ccc(/C=C2/C(=O)N(/C=C3\C(=O)Oc4ccccc4C3=O)/C(=N/C(C)=O)N2C)cc1OC	inactive
7. CC(=O)O[C@H]1C[C@H](O[C@H]2[C@@H](O)C[C@H](O[C@H]3[C@@H](O)C[C@H](O[C@H]4CC[C@@]5(C)[C@H](CC[C@@H]6[C@@H]5CC[C@]5(O)[C@@H](C7=CC(=O)OC7)CC[C@]65O)C4)O[C@@H]3C)O[C@@H]2C)O[C@H](C)[C@H]1O[C@@H]1O[C@H](CO)[C@@H](O)[C@H](O)[C@H]1O	active
8. COc1ccc(-n2cnc3c(NC(Cc4ccccc4)C(=O)O)ncnc32)cc1 (stereo unspecified)	inactive
9. COc1ccc(-c2cc(O)c3cc(C)cnc3n2)cc1	inactive
10. COC1(C(C)(C)C)C=C(C(C)(C)C)P(=O)(O)O1 (stereo unspecified)	inactive

Note: attention shifts to another entry.
# lookup: test call for Cc1ccc(S(=O)(=O)N2C3C=CC(C3)[C@@H]2C(Cl)(Cl)Cl)cc1 (stereo partly specified)
inactive

* * *

- Test system: MOLT-4
- assay.text: NCI tumour cell line growth inhibition, 48 h
Calls of active or inactive are those of the source. No stated cut-off is given here; in the data, active = GI50 up to about 1.1 µM and inactive = higher.
Tick one outcome: active, inactive

# example entries with known answers
1) CN(C)C(=S)/N=C1\SC(=N\c2ccccc2)/C(=N/c2ccccc2)N1c1ccc([N+](=O)[O-])cc1	inactive
2) COC1CC(C)C(OC)c2cc(O)cc(c2O)NC(=O)/C(C)=C/C=C\C(C)C(OC(N)=O)/C(C)=C\C(C)C1OC (stereo not given)	active
3) C(#C[C@@]12CCC[C@@H]1N(Cc1ccccc1)CO2)c1ccc2c(c1)OCO2	inactive
4) Cc1ccc(C2=NN=C3C(c4ccccc4)=Nc4ccccc4N3C2)cc1	inactive

# lookup: test call for O=C1C=CC(=O)N1c1ccc(I)cc1
inactive
